Here the recorded % viability is given for each entry.
- Test system: P. falciparum (NF54) stage V gametocytes
- Parameters: Mature stage V gametocyte viability, MitoTracker Red CMXRos high-content imaging
- applied_conditions: primary screen, n=2, fraction of DMSO control; 72 h, 2 µM; inhibitor
Over roughly 68,000 compounds, “% viability” has its median near 1.1; the lowest 2% begin near 0.96. Shown is part of a subset that was picked to be rich in the lowest values. The numbers are fractions of the control, whatever unit the source prints.
Provide the reading as a plain figure in %.

Query: % viability; subject: Cc1ncc(CN2CCc3c([nH]c4cc(C5CC5)nn4c3=O)C2)n1C [DDD01058398]
1.038

----------
- Tested on: P. falciparum (NF54) stage V gametocytes
- Set-up: Mature stage V gametocyte viability, MitoTracker Red CMXRos high-content imaging
- applied_conditions: primary screen, n=2, fraction of DMSO control; 72 h, 2 µM; inhibitor
Over roughly 68,000 compounds, “% viability” has its median near 1.1; the lowest 2% begin near 0.96. The list comes from a sample in which the lowest values are over-represented; it also holds close analogues and randomly drawn compounds. The numbers are fractions of the control, whatever unit the source prints.
Please assign f whenever % viability is at or above 1%, and t whenever it is below.

Observe how each entry below is paired with its result.
compound | assigned_category
COc1ccc(-c2c(C)nn3c(N)c(C#N)nnc23)cc1 [DDD01035158] | f
Cc1[nH]c2cc(C3CCN(Cc4cccc(F)c4F)C3)nn2c(=O)c1C (centres unmarked) [DDD01270135] | t
Cn1nc(C2CCC2)c(-c2ccc3c(c2)OCO3)c1N [DDD01074643] | f
O=C(CNC(=O)N1CCc2c([nH]c3ccc(Cl)cc23)C1)N1CCOCC1 [DDD01035668] | f
CCc1c(C)[nH]c2cc(C3CCN(Cc4ccccc4F)C3)nn2c1=O (centres unmarked) [DDD01270117] | t
CN(Cc1ccc(F)c(F)c1)C(=O)CCC1=NC(=C2N=CN=N2)NO1 [DDD01062114] | f
CCc1c(C)nn2c(=O)cc(C3CCN(C(=O)c4cnn(C)c4)C3)[nH]c12 (centres unmarked) [DDD01056908] | f
CCc1cc(=O)n2nc(C3CCN(C(=O)c4ccccn4)CC3)cc2[nH]1 [DDD01057364] | f
CCc1nn2c(N)c(C#N)nnc2c1-c1ccc(OC)cc1 [DDD01035159] | f
COc1cc2c(cc1-c1nc3c[nH]n(C(C)C)c-3n1)OCO2 [DDD01249461] | f

I wonder whether COc1ccc(-c2c(C(C)C)nn3c(N)c(C#N)nnc23)cc1 [DDD01035184] has % viability below 1%. Can you tell?
t

----------
- Test system: P. falciparum (NF54) stage V gametocytes
- Design: Mature stage V gametocyte viability, MitoTracker Red CMXRos high-content imaging
- applied_conditions: primary screen, n=2, fraction of DMSO control; 72 h, 2 µM; inhibitor
Over roughly 68,000 compounds, “% viability” has its median near 1.1; the lowest 2% begin near 0.96. The sample holds the lowest values, similar compounds and a random draw of the others, so the mix is not that of the screen. The numbers are fractions of the control, whatever unit the source prints.
property_measured: % viability (%)
Provide the reading as a plain figure in %.

compound | result_unit | % viability
CCCn1ncc(-c2nc3c[nH]n(CC)c-3n2)c1C | % | 1.088

Now turn to the next compound.
Query: % viability; subject: CCCc1nn(C)c(N)c1-c1ccc2c(c1)OCO2
1.2104
